assayedSystem: GMPPNP-loaded KRAS G12C (Homo sapiens, UniProt P01116, G12C)
Sequence (P01116 1-188 isoform P01116-2 G12C): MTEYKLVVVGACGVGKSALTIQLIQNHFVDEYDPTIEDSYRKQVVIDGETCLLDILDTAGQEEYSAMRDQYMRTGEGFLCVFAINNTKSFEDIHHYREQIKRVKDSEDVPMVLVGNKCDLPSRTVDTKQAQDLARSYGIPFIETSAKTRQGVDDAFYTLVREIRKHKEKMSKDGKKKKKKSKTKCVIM
assayRemarks: KRAS G12C RAF Disruption Assay (HTRF)
setupConditions: recombinant GMPPNP-loaded KRAS G12C (5 nM), 20 min with compound; GST-RAF1 RBD (9 nM); HTRF signal; read-out: KRASG12C RAF Disruption Assay (IC50)
endpointLabel: pIC50
Give bare numbers, as −log10 of the molar value.

C#Cc1cccc2cccc(-c3ncc4c(N5CCN(C(=O)/C(Cl)=C/c6ccccn6)CC5)nc(OC[C@@]56CCCN5C[C@H](F)C6)nc4c3F)c12 | 4.33
C#Cc1cccc2cccc(-c3ncc4c(N(C)[C@H]5CN(C(=O)/C(F)=C/c6nccs6)C[C@H]5F)nc(OC[C@@]56CCCN5C[C@H](F)C6)nc4c3F)c12 | 6.70
C#Cc1c(F)ccc2cc(O)cc(-c3ncc4c(N5CCN(C(=O)/C(F)=C/c6ccccn6)CC5)nc(OC[C@@]56CCCN5C[C@H](F)C6)nc4c3F)c12 | 8.52
N#CC[C@H]1CN(c2nc(OC[C@@]34CCCN3C[C@H](F)C4)nc3c(F)c(-c4cccc(F)c4C(F)(F)F)ncc23)CCN1C(=O)/C(F)=C/c1nccs1 | 7.40
C#Cc1c(F)ccc2cc(O)cc(-c3ncc4c(N5CC6CCC(C5)N6C(=O)/C(Cl)=C/c5ccccn5)nc(OC[C@@]56CCCN5C[C@H](F)C6)nc4c3F)c12 | 5.89

Hi team, please reply with pIC50 for each item in this list.
1. C#Cc1cccc2c(F)ccc(-c3ncc4c(N5CCN(C(=O)/C(F)=C/c6ncccn6)CC5)nc(OC[C@@]56CCCN5C[C@H](F)C6)nc4c3F)c12
2. C#Cc1cccc2cccc(-c3ncc4c(N(C)[C@@H]5CCN(C(=O)/C(F)=C/c6ccccn6)C5)nc(OC[C@@]56CCCN5C[C@H](F)C6)nc4c3F)c12
3. C#Cc1c(F)ccc2cc(O)cc(-c3ncc4c(N5CCN(C(=O)/C(F)=C/c6cccnn6)CC5)nc(OC[C@@]56CCCN5C[C@H](F)C6)nc4c3F)c12

Reply:
[6.00, 7.85, 8.70]
